Below, each of the compounds is paired with its reported IC50 value.
# subject-of-test: MAPK14;MAPK11;MAPK12 (human)
# procedure-text: Inhibition of p38 Kinase Activity

INSERT INTO results (compound, result) VALUES
  ('Cc1ccc(C(N)=O)cc1Nc1nc(NC2CCN(C(C)C)CC2)nc(N(C)CC(C)(C)C)n1', '< 1000 nM'),
  ('COC(=O)CC(CNc1nc(Cl)nc(Nc2ccc3ncsc3c2)n1)c1ccc(Cl)cc1 (stereo not drawn)', '< 10000 nM'),
  ('Cc1ccc(C(N)=O)cc1Nc1nc(N[C@@H]2CCNC2)nc(N2CCc3ccccc3C2)n1', '< 1000 nM'),
  ('CONC(=O)c1ccc(C)c(Nc2nc(N(C)CC(C)(C)C)nc(-n3ccnc3)n2)c1', '< 1000 nM'),
  ('Cc1ccc(C(N)=O)cc1Nc1nc(NC[C@H]2CCCN2)nc(N(C)CC(C)C)n1', '< 1000 nM');

Data request: Quick check: IC50 of CC1(C)C2CCC(CNc3nc(Nc4ccc5ncoc5c4)nc(N4CCN(C(=O)CCC(=O)O)CC4)n3)C1C2 (stereo not drawn) ?
Data returned: < 10000 nM

Data request: Same lookup for Cc1ccc(C(N)=O)cc1Nc1nc(NC2CCN(Cc3ccc(O)cc3)C2)nc(N(C)CC(C)C)n1 (stereo not drawn) , please.
Data returned: < 1000 nM

Data request: Same lookup for Cc1ccc(C(N)=O)cc1Nc1nc(N[C@@H]2CCNC2)nc(OC[C@@H]2CC[C@H]3C[C@H]2C3(C)C)n1 , please.
Data returned: < 1000 nM
